Just for reference, patent US10759783B2 is where these values come from.

- assay-system: BTK (phospho-BTK) in human whole blood (Homo sapiens)
- Sequence (Q06187 whole entry): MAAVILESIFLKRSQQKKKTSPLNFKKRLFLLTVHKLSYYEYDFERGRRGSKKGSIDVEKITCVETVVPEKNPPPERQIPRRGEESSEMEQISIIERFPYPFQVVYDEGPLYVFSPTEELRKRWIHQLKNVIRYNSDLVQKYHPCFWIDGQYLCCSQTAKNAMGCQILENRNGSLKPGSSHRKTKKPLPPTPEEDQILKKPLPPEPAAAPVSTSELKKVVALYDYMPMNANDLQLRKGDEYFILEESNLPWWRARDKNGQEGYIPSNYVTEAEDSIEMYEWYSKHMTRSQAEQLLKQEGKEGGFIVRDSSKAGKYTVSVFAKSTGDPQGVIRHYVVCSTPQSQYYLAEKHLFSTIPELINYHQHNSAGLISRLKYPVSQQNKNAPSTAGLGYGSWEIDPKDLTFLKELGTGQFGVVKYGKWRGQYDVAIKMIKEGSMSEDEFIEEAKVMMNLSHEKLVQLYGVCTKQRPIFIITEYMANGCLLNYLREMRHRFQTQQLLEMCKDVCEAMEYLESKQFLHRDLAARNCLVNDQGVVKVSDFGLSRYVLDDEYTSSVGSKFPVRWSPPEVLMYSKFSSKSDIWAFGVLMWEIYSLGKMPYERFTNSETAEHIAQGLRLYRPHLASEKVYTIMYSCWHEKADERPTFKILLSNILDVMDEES
- test: In vitro PD assay in human whole blood (pBTK assay)
measurement-name: IC50

Cc1cc(-c2ccnc(Nc3cnn4c3CCC4)n2)ccc1CNC(=O)c1cnc(C(C)(C)C)s1 [Example I-315]	< 500 nM
Cc1cc(-c2ccnc(Nc3cnn(C)c3)n2)ccc1CNC(=O)c1ccc(C(C)(C)C)cc1 [Example I-7]	500 to 1500 nM
Cc1cc(-c2cc(Nc3cc4c(cn3)CN(CCO)CC4)ncn2)ccc1CNC(=O)c1cnc(C(C)(C)C)s1 [Example I-268]	< 500 nM
CCn1cc(Nc2nccc(-c3ccc4c(c3)CCCCC4NC(=O)N3CC(OC(C)C)C3)n2)cn1 (centres unmarked) [Example I-166]	< 500 nM
COCCc1cc(-c2ccnc(Nc3cnn(C)c3)n2)ccc1CNC(=O)N1CC(OC(C)(C)C)C1 [Example I-319]	< 500 nM
Cc1cc(-c2ccnc(Nc3cnn(C)c3)n2)ccc1CNC(=O)N1CC[C@@H](C(C)C)C1 [Example I-255]	< 500 nM

Ask: Fill in the recorded IC50 for this molecule, with BTK (phospho-BTK) in human whole blood (Homo sapiens) as test system: Cn1cc(Nc2nccc(-c3ccc4c(c3)OCCCC4NC(=O)N3CC(OC(C)(C)C)C3)n2)cn1 (centres unmarked) [Example I-189]
Result: < 500 nM

Ask: Fill in the recorded IC50 for this molecule, with BTK (phospho-BTK) in human whole blood (Homo sapiens) as test system: Cc1cc(-c2ccnc(Nc3cnn(C)c3)n2)ccc1CNC(=O)c1cnc(C(F)(F)F)s1 [Example I-4]
Result: 1500 to 10000 nM

* * *

In what follows, each item is paired with its IC50 for UniProtKB Q06187.

Ask: Fill in the recorded IC50 for this compound, with UniProtKB Q06187 as test system: CNc1nccc(-c2ccc(CNC(=O)c3cnc(C(C)(C)C)s3)c(C)c2)n1
Result: 100 to 999 nM

Ask: Fill in the recorded IC50 for this compound, with UniProtKB Q06187 as test system: CC(C)OC1CN(C(=O)NC2CCN(C3COC3)Cc3cc(-c4ccnc(Nc5cnn(C)c5)n4)ccc32)C1 (stereo not drawn)
Result: < 10 nM

Ask: Fill in the recorded IC50 for this compound, with UniProtKB Q06187 as test system: Cc1cc(-c2ccnc(Nc3cnn(C(C)C)c3)n2)ccc1CNC(=O)c1cnc(C(C)(C)C)s1
Result: < 10 nM

Ask: Fill in the recorded IC50 for this compound, with UniProtKB Q06187 as test system: Cc1cc(-c2cnnc(Nc3cnn(C)c3)c2)ccc1CNC(=O)c1cnc(C(C)(C)C)s1
Result: 100 to 999 nM

Ask: Fill in the recorded IC50 for this compound, with UniProtKB Q06187 as test system: CCn1cc(Nc2nccc(-c3ccc(CNC(=O)N4CC(OC(C)C)C4)c(C)c3)n2)cn1
Result: < 10 nM

Ask: Fill in the recorded IC50 for this compound, with UniProtKB Q06187 as test system: CC(C)(O)Cn1cc(Nc2nccc(-c3ccc4c(c3)CCCCC4NC(=O)N3CC(OC(C)(C)C)C3)n2)cn1 (stereo not drawn)
Result: < 10 nM

Ask: Fill in the recorded IC50 for this compound, with UniProtKB Q06187 as test system: Cc1cc(-c2ccnc(Nc3cn[nH]c3)n2)ccc1CNC(=O)c1cnc(C(C)(C)C)s1
Result: < 10 nM

Ask: Fill in the recorded IC50 for this compound, with UniProtKB Q06187 as test system: Cc1cc(-c2ccnc(Nc3cnn(C4CCN(S(C)(=O)=O)CC4)c3)n2)ccc1CNC(=O)c1cnc(C(C)(C)C)s1
Result: < 10 nM

Ask: Fill in the recorded IC50 for this compound, with UniProtKB Q06187 as test system: CC(C)(C)OC1CN(C(=O)NC2CCCCc3cc(-c4ccnc(Nc5cnn(CCO)c5)n4)ccc32)C1 (stereo not drawn)
Result: < 10 nM

Ask: Fill in the recorded IC50 for this compound, with UniProtKB Q06187 as test system: Cc1cc(-c2ccnc(N)n2)ccc1CNC(=O)c1cnc(C(C)(C)C)s1
Result: < 10 nM

* * *

- assay-system: BTK enzyme (Homo sapiens, UniProt Q06187)
- Sequence (Q06187 whole entry): as above
pIC50: −log10 of the molar value.
measurement-name: pIC50

Guide cases for pIC50, answers given:
Cc1cc(-c2ccnc(Nc3cnn(C)c3)n2)ccc1CNC(=O)c1ccn(C)c1	7.00 to 8.00
CC(C)OC1CN(C(=O)NCc2ccc(-c3ccnc(Nc4cnn([C@@H]5CCOC5)c4)n3)cc2C(F)(F)F)C1	> 8.00
CC(C)(C)OC1CN(C(=O)NC2CCCCc3cc(-c4ccnc(Nc5cnn(C6CCNCC6)c5)n4)ccc32)C1 (stereo not shown)	> 8.00

Continue with the compound presented below.
Ask: Fill in the recorded pIC50 for this compound, with BTK enzyme (Homo sapiens, UniProt Q06187) as test system: Cc1cc(-c2ccnc(Nc3cnn(C4CCNCC4)c3)n2)ccc1CNC(=O)c1cnc(C(C)(C)C)s1
Result: > 8.00

* * *

In what follows, each item is paired with its IC50 for BTK enzyme (Homo sapiens, UniProt Q06187).

CCn1cc(Nc2nccc(-c3ccc(CNC(=O)N4CCC(C(C)(C)C)C4)c(C(F)(F)F)c3)n2)cn1 (stereo not drawn) [Example I-297]	< 10 nM
Cc1cc(-c2cc(Nc3cc4n(n3)CCC4)ncn2)ccc1CNC(=O)c1cnn(C(C)(C)C)c1 [Example I-193]	< 10 nM
Cc1cc(-c2ccnc(Nc3ccc(N4CCN(C)CC4)cn3)n2)ccc1CNC(=O)c1cnc(C(C)(C)C)s1 [Example I-62]	< 10 nM
CC(C)CN1CCN(Cc2ccc(-c3ccnc(Nc4cnn(CCO)c4)n3)cc2C(F)(F)F)C(=O)C1 [Example I-310]	< 10 nM
CC(C)n1cc(Nc2nccc(-c3ccc(CNC(=O)N4CCC(C(C)(C)C)C4)c(C(F)(F)F)c3)n2)cn1 (stereo not drawn) [Example I-293]	< 10 nM
CC(C)OC1CN(C(=O)NC2CCN(C=O)Cc3cc(-c4ccnc(Nc5cnn(C)c5)n4)ccc32)C1 (stereo not drawn) [Example I-329]	< 10 nM

Ask: Field request: IC50 | item: Cc1cc(-c2ccnc(Nc3cnn(CCO)c3)n2)ccc1CNC(=O)c1cnn(C(C)(C)C)c1 [Example I-250]
Result: < 10 nM

Ask: Field request: IC50 | item: COC1CN(C(=O)NC2CCCCc3cc(-c4ccnc(Nc5cnn(C)c5)n4)ccc32)C1 (stereo not drawn) [Example I-339]
Result: 10 to 99 nM

Ask: Field request: IC50 | item: Cc1cc(-c2ccnc(N)n2)ccc1CNC(=O)c1ccc2c(c1)CCNC2 [Example I-77]
Result: 1000 to 10000 nM

Ask: Field request: IC50 | item: Cn1cc(Nc2nccc(-c3ccc4c(c3)COCC4NC(=O)c3cnc(C(C)(C)C)s3)n2)cn1 (stereo not drawn) [Example I-98]
Result: 10 to 99 nM

Ask: Field request: IC50 | item: Cc1cc(-c2cc(Nc3cc4n(n3)CCCN(CCO)C4)ncn2)ccc1CNC(=O)N1CC(OC(C)C)C1 [Example I-274]
Result: < 10 nM

Ask: Field request: IC50 | item: CC(C)C1CCN(C(=O)NC2CCCCc3cc(-c4ccnc(Nc5cnn([C@H]6CCOC6)c5)n4)ccc32)C1 (stereo partly drawn) [Example I-345]
Result: < 10 nM

Ask: Field request: IC50 | item: Cc1cc(-c2cc(Nc3cc4n(n3)CCNC4)ncn2)ccc1CNC(=O)c1cnn(C(C)(C)C)c1 [Example I-231]
Result: < 10 nM

Ask: Field request: IC50 | item: CC(C)C1CCN(C(=O)NC2CCCCc3cc(-c4ccnc(Nc5cnn(CCO)c5)n4)ccc32)C1 (stereo not drawn) [Example I-181]
Result: < 10 nM

Ask: Field request: IC50 | item: Cc1nc(-c2ccnc(Nc3cnn(C)c3)n2)ccc1CNC(=O)c1cc2c(s1)CCOC2 [Example I-104]
Result: 100 to 999 nM

Ask: Field request: IC50 | item: CC(C)OC1CN(C(=O)NCc2ccc(-c3ccnc(Nc4cnn([C@H]5CCOC5)c4)n3)cc2C(F)(F)F)C1 [Example I-313]
Result: < 10 nM

Ask: Field request: IC50 | item: CN1CCC(n2cc(Nc3nccc(-c4ccc5c(c4)CCCCC5NC(=O)N4CC(OC(C)(C)C)C4)n3)cn2)CC1 (stereo not drawn) [Example I-180]
Result: < 10 nM

Ask: Field request: IC50 | item: CC(C)(C)OC1CN(C(=O)NC2CCCCc3cc(-c4ccnc(Nc5cnn6c5CCC6)n4)ccc32)C1 (stereo not drawn) [Example I-182]
Result: < 10 nM

Ask: Field request: IC50 | item: Cc1cc(-c2ccnc(NC3CCN(C)CC3)n2)ccc1CNC(=O)c1cnc(C(C)(C)C)s1 [Example I-25]
Result: 1000 to 10000 nM

Ask: Field request: IC50 | item: Cc1cc(-c2ccnc(N)n2)ccc1CNC(=O)c1cn2c(n1)CNCC2 [Example I-74]
Result: 1000 to 10000 nM

Ask: Field request: IC50 | item: Cc1cc(-c2ccnc(Nc3cnn(CCO)c3)n2)ccc1CNC(=O)c1cc2c(s1)CCOC2 [Example I-120]
Result: < 10 nM

Ask: Field request: IC50 | item: Cc1cc(-c2ccnc(Nc3cnn([C@H]4CCNC4)c3)n2)ccc1CNC(=O)c1cnc(C(C)(C)C)s1 [Example I-124]
Result: < 10 nM

Ask: Field request: IC50 | item: Cc1cc(-c2cc(Nc3cc4n(n3)CCNC4)ncn2)ccc1CNC(=O)N1CC(OC(C)C)C1 [Example I-272]
Result: < 10 nM

Ask: Field request: IC50 | item: Cn1cc(Nc2nccc(-c3ccc4c(c3)CCCCC4NC(=O)N3CC(OC(C)(C)C)C3)n2)cn1 (stereo not drawn) [Example I-163]
Result: < 10 nM

Ask: Field request: IC50 | item: Cc1cc(-c2cc(Nc3cc4n(n3)CCN(C)C4C)ncn2)ccc1CNC(=O)c1cnc(C(C)(C)C)s1 (stereo not drawn) [Example I-283]
Result: < 10 nM

Ask: Field request: IC50 | item: Cc1cc(-c2ccnc(NC3CCOCC3)n2)ccc1CNC(=O)c1cnc(C(C)(C)C)s1 [Example I-26]
Result: 1000 to 10000 nM

Ask: Field request: IC50 | item: Cc1cc(-c2ccnc(Nc3cnn([C@@H]4CCN(C)C4)c3)n2)ccc1CNC(=O)c1cnc(C(C)(C)C)s1 [Example I-123]
Result: < 10 nM

Ask: Field request: IC50 | item: Cc1cc(-c2ccnc(Nc3cnn(C[C@H](O)CN)c3)n2)ccc1CNC(=O)c1cnc(C(C)(C)C)s1 [Example I-127]
Result: < 10 nM

Ask: Field request: IC50 | item: CCn1cc(Nc2nccc(-c3ccc(CNC(=O)N4CC(OC(C)(C)C)C4)c(C)c3)n2)cn1 [Example I-216]
Result: < 10 nM

Ask: Field request: IC50 | item: Cc1cc(-c2ccnc(Nc3cnn(C)c3)n2)ccc1CN1Cc2nc(C(C)(C)C)sc2C1=O [Example I-12]
Result: < 10 nM
